The values you see were collected from PubChem BioAssay (NCI).

For each record, write down the corresponding growth inhibition.
Assay: NCI Yeast Anticancer Drug Screen. Data for the rad50 strain (AID 155);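 note: 0% = growth of vehicle-only cultures of the same strain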
Conditions: S. cerevisiae rad50 strain growth inhibition, stronger effect = higher value; at 50.0 µM unless noted
This is part of a sample that, as a whole, favours compounds with a hit. Of some 79,000 tested, about 15% had one in any assay.
Numbers only, in %.

Check out these entries, answers already filled in.
[[record]]
compound = "CCCCCCn1ncc2c(N)ncnc21"
measurementunits = "%"
result = 10.4

[[record]]
compound = "O=C1CN(c2cccc(C(F)(F)F)c2)C(=O)CN1/N=C/c1ccc[nH]1"
measurementunits = "%"
result = -27.7

[[record]]
compound = "[N-]=[N+]=Nc1ccc2nc(N)nc(N)c2c1"
measurementunits = "%"
result = -4.25

[[record]]
compound = "Nc1ccc(S(=O)[O-])cc1.Nc1ccc(S(=O)[O-])cc1.[Zn+2]"
measurementunits = "%"
result = -19.2

[[record]]
compound = "Cc1nc(Nc2ccc(Cl)cc2)c2cnn(-c3ccc(Cl)cc3)c2n1"
measurementunits = "%"
result = -1.9


Need growth inhibition for each of these compounds.
1. CCCCCCCCCC(=O)N=C(C(N)=O)C(N)=O
2. Clc1ccc(C(=Nc2ccccc2)C(Nc2ccccc2)c2ccc(Cl)cc2)cc1 (stereo not given)

Result:
1. -13.2
2. 4.75
